# assay system: Cytochrome P450 2C19 (Homo sapiens) (UniProt P33261)
# Sequence (P33261 whole entry, looked up): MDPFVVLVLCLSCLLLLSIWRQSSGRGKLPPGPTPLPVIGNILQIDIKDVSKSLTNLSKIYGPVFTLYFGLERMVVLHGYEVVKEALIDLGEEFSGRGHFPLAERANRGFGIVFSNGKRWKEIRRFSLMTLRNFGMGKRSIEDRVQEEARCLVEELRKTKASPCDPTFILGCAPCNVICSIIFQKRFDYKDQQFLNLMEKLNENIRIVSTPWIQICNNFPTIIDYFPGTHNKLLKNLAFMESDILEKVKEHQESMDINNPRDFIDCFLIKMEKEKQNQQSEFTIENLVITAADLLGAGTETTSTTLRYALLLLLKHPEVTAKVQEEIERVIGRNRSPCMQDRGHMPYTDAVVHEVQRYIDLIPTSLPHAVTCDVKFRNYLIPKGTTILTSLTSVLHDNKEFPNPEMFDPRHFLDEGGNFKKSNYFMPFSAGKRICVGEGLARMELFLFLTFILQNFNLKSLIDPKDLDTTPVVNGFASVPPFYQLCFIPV
# procedure details: blockers of cytochrome P450 2C19 activity – biochemical, luminescence, ADME assay, primary screen (AID 778)
# measurement context: CYP2C19 Supersomes, luciferin-H EGE luminescence, 30 min; at 5 µM; hits give high values
The campaign covered roughly 96,000 compounds. About 20,000 (21%) were called active. Not all results are given here.
Label true for high-side inhibition (at or above 20%) and false for low-side inhibition (below it).

Study these solved cases before continuing.
{"compound": "COc1ccc2nc(SCC(=O)Nc3c(C)cc(C)cc3C)[nH]c2c1", "assay system": "Cytochrome P450 2C19 (Homo sapiens) (UniProt P33261)", "class label": "true"}
{"compound": "Cc1cc(-c2ccccc2)n2nc(C)c(-c3ccccc3)c2n1", "assay system": "Cytochrome P450 2C19 (Homo sapiens) (UniProt P33261)", "class label": "true"}
{"compound": "Cc1ccc2c(CSc3nncs3)cc(=O)oc2c1", "assay system": "Cytochrome P450 2C19 (Homo sapiens) (UniProt P33261)", "class label": "true"}
{"compound": "COc1cc2ccccc2cc1C(=O)Nc1ccc(S(=O)(=O)Nc2cc(C)on2)cc1", "assay system": "Cytochrome P450 2C19 (Homo sapiens) (UniProt P33261)", "class label": "false"}
{"compound": "CSc1nc(N)c(C#N)c(-c2ccccc2Cl)c1C#N", "assay system": "Cytochrome P450 2C19 (Homo sapiens) (UniProt P33261)", "class label": "false"}

Prompt: Hi team, for `COc1c(Cl)cc(C(=O)Nc2ccc(Cl)cn2)cc1Cl` , is the recorded inhibition at or above 20%?
Response: false

Prompt: Hi team, for `O=C(CC12CC3CC(CC(C3)C1)C2)Nc1ccc2c(c1)COC2=O` , is the recorded inhibition at or above 20%?
Response: false

Prompt: Hi team, for `CCOC(=O)N1CCN(CC(=O)Nc2cc(C)nn2-c2nc3ccccc3s2)CC1` , is the recorded inhibition at or above 20%?
Response: true

Prompt: Hi team, for `Nc1c(-c2cccc(Cl)c2)cnn1-c1cccc([N+](=O)[O-])c1` , is the recorded inhibition at or above 20%?
Response: true

Prompt: Hi team, for CCCCC(CC)C(=O)Nc1ccc(Cl)cn1 (configuration not stated) , is the recorded inhibition at or above 20%?
Response: false

Prompt: Hi team, for CCOC(=O)N1CCC(NC(=O)C(C)n2c3ccccc3c3cnn(C)c(=O)c32)CC1 (configuration not stated) , is the recorded inhibition at or above 20%?
Response: false

Prompt: Hi team, for `CCn1nnc(NC(=O)c2c(OC)cccc2OC)n1` , is the recorded inhibition at or above 20%?
Response: false

Prompt: Hi team, for `Cn1c(=O)c2c(ncn2CC(=O)N2CCN(c3ccccc3)CC2)n(C)c1=O` , is the recorded inhibition at or above 20%?
Response: false

Prompt: Hi team, for Cc1ccc(C(CC(=O)O)Nc2nc(N3CCCCC3)nc(N3CCCCC3)n2)cc1 (configuration not stated) , is the recorded inhibition at or above 20%?
Response: false

Prompt: Hi team, for `Cn1nc(C(F)(F)F)c(C(=O)Nc2cccc(C(F)(F)F)c2)c1SCc1ccc(Cl)cc1` , is the recorded inhibition at or above 20%?
Response: true

Prompt: Hi team, for `CN(C)c1ccc(-n2cccc2/C=C2/SC(=Nc3ccc(F)cc3)NC2=O)cc1` , is the recorded inhibition at or above 20%?
Response: false

Prompt: Hi team, for COc1ccc(C2C=C(c3ccc(Br)cc3)Nc3nc(NS(C)(=O)=O)nn32)cc1 (configuration not stated) , is the recorded inhibition at or above 20%?
Response: false

Prompt: Hi team, for `COC(=O)c1cccc(NC(=O)CSc2nc(C)cc(=O)[nH]2)c1` , is the recorded inhibition at or above 20%?
Response: true

Prompt: Hi team, for COc1ccc(C2=NOC3(CC(=O)N(c4ccc(Cl)cc4)C3=O)C2)c(OC)c1 (configuration not stated) , is the recorded inhibition at or above 20%?
Response: false

Prompt: Hi team, for O=C(NN1C(=O)C2C3C=CC(C4CC34)C2C1=O)c1ccc(Cl)cc1 (configuration not stated) , is the recorded inhibition at or above 20%?
Response: false

Prompt: Hi team, for CC1CCCC(C)N1CCCNC(=O)c1cc2c(=O)n(C)c3ccccc3c2n1C (configuration not stated) , is the recorded inhibition at or above 20%?
Response: false

Taken from PubChem BioAssay AID778.
